Data origin, for the record: patent US10203334B2

# experiment: pKa of free probe from pH-dependent absorbance spectra
# Type: physicochemical
# condition_info: free probe; absorbance spectrum as a function of pH; read-out: pKa for the equilibrium of the phenol and phenolate forms
assay_metric: pKa
Provide a numeric answer; units are not to be included.

Recorded pKa for NCC1O[C@H](OC2C(O)C(OC3C(O)[C@H](N)CC(N)[C@H]3O[C@H]3OC(CN)[C@@H](O)C(O)C3N)O[C@@H]2CSCCNC(=O)CCSCC(=O)Nc2ccc(-c3c4ccc(=O)cc-4oc4cc(O)ccc34)c(C(=O)O)c2)C(N)C(O)[C@@H]1O (stereo partly shown) [F-neo (42a), Neomycin-Fluorescein Conjugate] , please?
6.84
